Entries annotated with measured Work 25% (Dry)
PROCEDURE SUMMARY: Dry tensile strength (Instron) after heat cycles
EXPERIMENTAL SETUP: normal blonde hair, 5 heat cycles at 130° C., 0.06 M solutions, n = 50 fibers

- COMPOUND: "O=C[C@@H](O)[C@H](O)[C@H](O)CO"
  Work 25% (Dry): "1,060 +/− 180 J/m^2"
- COMPOUND: "O=C[C@@H](O)[C@@H](O)[C@H](O)CO"
  Work 25% (Dry): "883.4 +/− 174.2 J/m^2"
- COMPOUND: "O=C[C@H](O)[C@@H](O)[C@H](O)[C@H](O)CO [D-Glucose, reference compound]"
  Work 25% (Dry): "836.9 +/− 119.6 J/m^2"
- COMPOUND: "O=C[C@H](O)[C@@H](O)[C@H](O)CO"
  Work 25% (Dry): "1,150 +/− 818 J/m^2"

----------
PROCEDURE SUMMARY: DSC doublet peak area (α-structure) of hair after heat cycles
EXPERIMENTAL SETUP: bleached hair, 5 heat cycles at 130° C., 0.06 M solutions
Entries annotated with measured Doublet Peak Area
RECORDED ENDPOINT: Doublet Peak Area

- COMPOUND: "O=C[C@H](O)[C@@H](O)[C@H](O)[C@H](O)CO [D-Glucose, reference compound]"
  READOUT VALUE: "5.37 +/− 1.22 J/g hair"
- COMPOUND: "O=C[C@@H](O)[C@@H](O)[C@H](O)CO [D-Lyxose]"
  READOUT VALUE: "6.23 +/− 0.59 J/g hair"
- COMPOUND: "O=C[C@H](O)[C@@H](O)[C@H](O)CO [D-Xylose]"
  READOUT VALUE: "9.66 +/− 2.59 J/g hair"
- COMPOUND: "O=C[C@@H](O)[C@H](O)[C@H](O)CO [D-Arabinose]"
  READOUT VALUE: "8.22 +/− 0.90 J/g hair"
- COMPOUND: "O=C[C@H](O)[C@H](O)[C@H](O)CO [D-Ribose]"
  READOUT VALUE: "9.27 +/− 2.81 J/g hair"
